# Assay info: pKa value of the compound
# Assay type: physicochemical
Reported endpoint: pKa

INSERT INTO measurements (compound, reported_endpoint, recorded_number) VALUES
  ('CCCCc1oc2ccccc2c1C(=O)c1cc(I)c(OCC[N+](CC)(CC)COP(=O)(O)O)c(I)c1', 'pKa', 6.56);

* * *

# Assay info: pKa2 value of the compound
# Assay type: physicochemical
# Condition parameters: read-out: pKa2
Reported endpoint: pKa

INSERT INTO results (compound, recorded_number) VALUES
  ('C[N+]1(COP(=O)(O)O)CCN(C2=Nc3ccccc3Oc3ccc(Cl)cc32)CC1', 7.5),
  ('O=P(O)(O)OC[N+]1(C/C=C/c2ccccc2)CCN(C(c2ccccc2)c2ccccc2)CC1', 7.47);

* * *

# Assay info: pKa1 value of the compound
# Format: physicochemical
# Condition parameters: read-out: pKa1
Reported endpoint: pKa

INSERT INTO results (compound, reported_endpoint, result) VALUES
  ('O=P(O)(O)OC[N+]1(C/C=C/c2ccccc2)CCN(C(c2ccccc2)c2ccccc2)CC1', 'pKa', 1.95);
